B1: LINE1-full (parent)
chain: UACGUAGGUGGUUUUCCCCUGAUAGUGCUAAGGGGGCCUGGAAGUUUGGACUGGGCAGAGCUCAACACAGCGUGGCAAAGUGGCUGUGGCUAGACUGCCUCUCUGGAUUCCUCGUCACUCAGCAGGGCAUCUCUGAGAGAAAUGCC

# Variants of: B1
# methodDescription: self-cleavage, relative activity (ratio to wild type); higher = more cleavage; in vitro, sequencing; the parent is a self-cleaving ribozyme
Decision: self-cleavage >= 1 yields Y, all other cases yield N.

U81A U87A	N
U100A U109A	N
A43G U87G	N
A43C A92G	N

Hello, I need to know if C56A U96A has measured self-cleavage not below 1. Thanks!
N

Could you tell me if the measured self-cleavage of A30G A121G reaches 1 or more?
N

State whether the measured self-cleavage reaches 1, counting equality as reaching it, for A24U G137U
Y

Given U13C U134C , state whether its self-cleavage is at least 1.
Y

// inclusive: self-cleavage at least 1? input: A22G A140G
N

Given the entry C19U U85C , answer whether its self-cleavage meets or surpasses 1.
N

Would you say G83A A142G shows self-cleavage at minimum 1?
N

For this variant, is measured self-cleavage 1 or higher? U108C U130A
Y

Reported self-cleavage at or above 1? G4C U112A
N

Textbook exercise: given the entry C38A A136G , state whether its self-cleavage is greater than or equal to 1.
N

Textbook exercise: given the entry U62A U85C , state whether its self-cleavage is greater than or equal to 1.
N

Confirm if self-cleavage reported for the variant U9C G72A is 1 or above.
Y

I'd appreciate it if you could say whether A24G G54C has self-cleavage at least equal to 1.
N

Has G32U A42G a recorded self-cleavage greater than or equal to 1?
Y

Decide: is the reported value of self-cleavage for A129U A142U equal to or greater than 1?
Y

Can U5C U26G be said to have self-cleavage at or above 1?
N

Could you tell me if the measured self-cleavage of A107G U108A reaches 1 or more?
Y

Is reported self-cleavage greater than or equal to 1 here: C128U A129G
Y
